# credit: paper PMC12669040

# measurementProtocol: Colorimetric alkylation rate constant assay with TNB^2− as non-specific thiol
# Type: physicochemical
# conditionLabel: Replicate 3, 903 sec, [B]0=250; in µM
Reported remaining [B] values follow for various compounds
measureName: remaining [B]

>>> print(df.to_string())
                                   compound  valuereported
0                      O=C(CCl)Nc1ccc(F)cc1        244.526
1  C=CS(=O)(=O)Nc1cc2cc(C(=O)CCC(=O)O)sc2cc1OC [Compound E1]         247.89
2                   O=C(CCl)Nc1ccccc1C(=O)O        245.565
3                          O=C(CCl)N1CCOCC1        242.352
4  COc1cc2sc(C(=O)CCC(=O)O)cc2cc1NC(=O)CCl [Compound E2]        241.999
5                         O=C(CCl)Nc1ccccc1        244.866

====

# measurementProtocol: Colorimetric alkylation rate constant assay with TNB^2− as non-specific thiol
# Assay type: physicochemical
# conditionLabel: Replicate 2, 2530 sec, [B]0=250; in µM
measureName: remaining [B]

>>> print(df.to_string())
                                   molecule  valuereported
0                         O=C(CCl)Nc1ccccc1        241.772
1  COc1cc2sc(C(=O)CCC(=O)O)cc2cc1NC(=O)CCl [Compound E2]        240.593
2                          O=C(CCl)N1CCOCC1        234.722
3  C=CS(=O)(=O)Nc1cc2cc(C(=O)CCC(=O)O)sc2cc1OC [Compound E1]        243.511
4                   O=C(CCl)Nc1ccccc1C(=O)O        244.676
5                      O=C(CCl)Nc1ccc(F)cc1        241.457

====

Reported remaining [B] values follow for various compounds
# measurementProtocol: Colorimetric alkylation rate constant assay with thiol N1
# Assay type: physicochemical
# conditionLabel: Replicate 3; time 606 sec; [B]0=250; in µM
measureName: remaining [B]

In [3]: df
Out[3]:
                                   compound  valuereported
0                         O=C(CCl)Nc1ccccc1        226.273
1  COc1cc2sc(C(=O)CCC(=O)O)cc2cc1NC(=O)CCl [Compound E2]        161.991
2                          O=C(CCl)N1CCOCC1        223.892
3  C=CS(=O)(=O)Nc1cc2cc(C(=O)CCC(=O)O)sc2cc1OC [Compound E1]        181.605
4                      O=C(CCl)Nc1ccc(F)cc1        224.758
5                   O=C(CCl)Nc1ccccc1C(=O)O        234.876

====

# measurementProtocol: Colorimetric alkylation rate constant assay with TNB^2− as non-specific thiol
# Assay type: physicochemical
# conditionLabel: Replicate 1, 903 sec, [B]0 = 250; in µM
measureName: remaining [B]

                                   compound  valuereported
0  C=CS(=O)(=O)Nc1cc2cc(C(=O)CCC(=O)O)sc2cc1OC [Compound E1]        246.517
1           O=C(CCl)Nc1ccccc1 [Compound C2]        243.568
2        O=C(CCl)Nc1ccc(F)cc1 [Compound C3]        244.311
3     O=C(CCl)Nc1ccccc1C(=O)O [Compound C5]        246.195
4  COc1cc2sc(C(=O)CCC(=O)O)cc2cc1NC(=O)CCl [Compound E2]        243.032
5            O=C(CCl)N1CCOCC1 [Compound C4]        242.478
